Data origin: ChEMBL document CHEMBL4513146

System: Escherichia coli
Conditions: Concentration 32 ug.mL-1;; ASSAY_TEST Inhibition of Bacterial Growth; detection method Absorption (OD600); MEDIA CAMHB; plate type 384well; NBS; CORNING #3640; time 18 hr
Description: Antibacterial activity against Escherichia coli ATCC 25922 (CO-ADD:GN_001); MIC in CAMBH media using NBS plates, by OD(600)
Results with a measured potency or affinity are listed apart.
Recorded Inhibition values for a group of molecules are listed next.
Express your answer in %, writing the number without its unit.

O=C(Cn1nc2c3sc(N4CCCC4)nc3ncn2c1=O)Nc1ccccc1Br -11.75

**Q:** State the recorded Inhibition for this entry: Cc1cccc(Sc2nccn3c(=O)n(CC(=O)N4CCN(c5ccccc5)CC4)nc23)c1
**A:** -10.39

**Q:** State the recorded Inhibition for this entry: CCOc1ccc(-c2nc(CSc3nc4ccccc4n4c(C)nnc34)c(C)o2)cc1
**A:** 1.84

---

System: Escherichia coli
Settings: Concentration 32 ug.mL-1;; ASSAY_TEST Inhibition of Bacterial Growth; detection method Absorption (OD600); MEDIA CAMHB; plate type 384well; NBS; CORNING #3640; time 18 hr
Entries with a potency or affinity are not part of this list.
property name: Inhibition

compound	property name	reported measurement
Cc1ccccc1Cn1nc2c(=O)n(-c3ccc(Br)cc3)ccn2c1=O	Inhibition	1.73%
O=C(Cn1nc2ccc(SCc3ccc(Cl)cc3)nn2c1=O)Nc1ccccc1C(F)(F)F	Inhibition	-5.74%
COC(=O)c1ccc(CN(c2cccc(C)c2)S(=O)(=O)c2cccn3c(C)nnc23)o1	Inhibition	-6.24%

**Q:** State the recorded Inhibition for this entry: Cc1ccc(Oc2nccn3c(=O)n(CC(=O)Nc4ccc(C)cc4Cl)nc23)cc1
**A:** 0.24%

**Q:** State the recorded Inhibition for this entry: Cc1cccc(Sc2nccn3c(=O)n(CC(=O)N4CCN(c5ccc(F)cc5)CC4)nc23)c1
**A:** -6.75%

**Q:** State the recorded Inhibition for this entry: COc1cccc(NC(=O)Cn2nc3c4c5c(sc4ncn3c2=O)CCCC5)c1
**A:** -1.99%

**Q:** State the recorded Inhibition for this entry: CCc1nnc2c(SCC(=O)Nc3cccc(Br)c3)nc3ccccc3n12
**A:** -7.45%

---

Tested on: Escherichia coli
Conditions: Concentration 32 ug.mL-1;; ASSAY_TEST Inhibition of Bacterial Growth; detection method Absorption (OD600); MEDIA CAMHB; plate type 384well; NBS; CORNING #3640; time 18 hr
Potency and affinity values are given separately.
Recorded Inhibition values for a group of compounds are listed next.
Express your answer in %, writing the number without its unit.

compound	study target	property name	reported measurement
CCC(C)NC(=O)c1ccc2c(=O)n(CCC(C)C)c3nn(CC#N)c(=O)n3c2c1 (stereo not given)	Escherichia coli	Inhibition	-1.24
COC(=O)c1ccc(NC(=O)Cn2nc3c4cc(-c5ccc(F)cc5)nn4ccn3c2=O)cc1	Escherichia coli	Inhibition	3.19
CSc1cccc(NC(=O)Cn2nc3c(Oc4ccccc4C)nccn3c2=O)c1	Escherichia coli	Inhibition	-2.85
CCc1ccccc1Sc1nccn2c(=O)n(CC(=O)Nc3cccc(Br)c3)nc12	Escherichia coli	Inhibition	2.3
CC(C)c1nnc2c(SCC(=O)Nc3ccc(Cl)cc3C(F)(F)F)nc3ccccc3n12	Escherichia coli	Inhibition	-15.72
Cc1ccc(-c2ccc3nn(CC(=O)Nc4ccc(Cl)cc4F)c(=O)n3n2)cc1	Escherichia coli	Inhibition	-2.22
COc1cccc(-n2ccn3c(SCC(=O)NCc4ccc(C)cc4)nnc3c2=O)c1	Escherichia coli	Inhibition	2.15
O=C(Cn1nc2nc(Nc3ccc(F)cc3)ccn2c1=O)N1CCCc2ccccc21	Escherichia coli	Inhibition	-6.76
COc1ccc(-c2cc3c4nn(CC(=O)Nc5cc(C)ccc5OC)c(=O)n4ccn3n2)cc1	Escherichia coli	Inhibition	-0.57

Next, consider the following compound.
**Q:** State the recorded Inhibition for this entry: Cc1cccc(Cn2nc3c(=O)n(-c4cccc(Cl)c4C)ccn3c2=O)c1
**A:** -16.69
